Molecular target: OR2T33 (Homo sapiens)
Sequence (whole entry): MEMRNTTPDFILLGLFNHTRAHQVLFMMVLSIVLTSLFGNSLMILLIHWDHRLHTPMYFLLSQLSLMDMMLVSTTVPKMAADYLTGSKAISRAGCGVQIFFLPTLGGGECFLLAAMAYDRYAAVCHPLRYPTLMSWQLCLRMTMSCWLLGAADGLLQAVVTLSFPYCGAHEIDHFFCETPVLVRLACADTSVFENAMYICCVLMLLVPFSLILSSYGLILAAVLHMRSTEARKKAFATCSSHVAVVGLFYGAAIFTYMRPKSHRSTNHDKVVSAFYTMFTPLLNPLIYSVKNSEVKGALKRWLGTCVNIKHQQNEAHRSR
Settings: stereoisomer not certain
measure: odorant receptor agonist call

{"compound": "CC(CO)CS (stereo not drawn)", "data.value": "inactive"}
{"compound": "CCCCCC(S)C(C)CO (stereo not drawn)", "data.value": "inactive"}
{"compound": "CCCCC(S)C(C)CO (stereo not drawn)", "data.value": "inactive"}

====

Tested on: OR2A5 I126V A202S A255T
Conditions: stereoisomer not certain
measure: odorant receptor agonist call

{"compound": "Cc1cnc(C)c(C)n1", "target.under.test": "OR2A5 I126V A202S A255T", "measure": "odorant receptor agonist call", "data.value": "inactive"}
{"compound": "CC1=NC(C)C(C)S1 (centres undefined)", "target.under.test": "OR2A5 I126V A202S A255T", "measure": "odorant receptor agonist call", "data.value": "inactive"}
{"compound": "CCCC(S)CCOC(C)=O (centres undefined)", "target.under.test": "OR2A5 I126V A202S A255T", "measure": "odorant receptor agonist call", "data.value": "inactive"}
{"compound": "CCCCCCC=CCCC=O", "target.under.test": "OR2A5 I126V A202S A255T", "measure": "odorant receptor agonist call", "data.value": "inactive"}

====

Molecular target: UniProt Q8VGC6
Sequence (Q8VGC6 as listed by the source): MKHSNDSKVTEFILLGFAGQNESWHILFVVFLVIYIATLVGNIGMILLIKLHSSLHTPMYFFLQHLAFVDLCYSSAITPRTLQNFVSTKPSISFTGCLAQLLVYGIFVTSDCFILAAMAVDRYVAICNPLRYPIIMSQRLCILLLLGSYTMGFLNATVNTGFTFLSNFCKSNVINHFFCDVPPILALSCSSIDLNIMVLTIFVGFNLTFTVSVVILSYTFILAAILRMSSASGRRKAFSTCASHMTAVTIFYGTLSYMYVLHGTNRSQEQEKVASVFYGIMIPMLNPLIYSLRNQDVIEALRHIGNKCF
Conditions: stereoisomer not certain
Result category, one only: 1.0 = active, 0.0 = inactive

{"compound": "CCc1ccc(O)cc1", "label.class": 0.0}
{"compound": "O=C(O)C1CCC1", "label.class": 0.0}
{"compound": "CCCCCCC(C=O)=Cc1ccccc1", "label.class": 0.0}
{"compound": "CCCCCC(=O)CC", "label.class": 1.0}
{"compound": "CC(C)=CCCC(C)CCO (stereo not drawn)", "label.class": 1.0}

Test call, this compound: C=C(C)C1CC=C(C)CC1 (stereo not drawn) 0.0

Test call, this compound: CCOC(=O)C(C)CC (stereo not drawn) 0.0

Test call, this compound: CC(C)CCN 0.0

Test call, this compound: C=C(C)C1CCC(C)C(O)C1 (stereo not drawn) 0.0

====

Target: UniProt Q8VGL7
Sequence (Q8VGL7 as listed by the source): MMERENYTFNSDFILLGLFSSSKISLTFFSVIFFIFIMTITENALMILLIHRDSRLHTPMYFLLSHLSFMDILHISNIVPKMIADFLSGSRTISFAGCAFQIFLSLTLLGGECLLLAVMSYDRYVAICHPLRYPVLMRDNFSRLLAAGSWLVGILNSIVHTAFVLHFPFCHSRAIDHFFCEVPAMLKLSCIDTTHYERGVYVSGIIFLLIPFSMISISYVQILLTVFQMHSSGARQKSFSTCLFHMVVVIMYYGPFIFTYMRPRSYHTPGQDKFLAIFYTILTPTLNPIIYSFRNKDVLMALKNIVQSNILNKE
Settings: stereoisomer not certain
Result category, one only: TRUE for active, FALSE for inactive

{"chemical.smiles": "CCCCCC1=C(C)CCC1=O", "label.class": "TRUE"}

Test call, this compound: CCCCCCC(=O)[O-].[H+] FALSE

Test call, this compound: O=C1Cc2ccccc2O1 FALSE

Test call, this compound: CC(=O)OCC=C(C)C FALSE

====

Tested on: O1440
Sequence (whole entry): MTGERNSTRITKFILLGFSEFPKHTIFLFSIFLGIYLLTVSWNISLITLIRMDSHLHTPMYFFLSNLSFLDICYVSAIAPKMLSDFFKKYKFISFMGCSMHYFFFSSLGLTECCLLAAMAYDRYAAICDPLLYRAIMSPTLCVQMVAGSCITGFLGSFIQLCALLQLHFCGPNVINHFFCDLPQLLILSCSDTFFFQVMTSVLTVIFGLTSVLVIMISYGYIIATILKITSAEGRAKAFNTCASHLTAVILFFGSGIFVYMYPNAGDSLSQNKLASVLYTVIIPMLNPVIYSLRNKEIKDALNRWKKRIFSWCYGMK
Settings: stereoisomer not certain
Result category, one only: active, inactive

For orientation, consider the following solved cases.
{"compound": "O=C1CCCC=CCCCCCCCCCC1", "label.class": "active"}
{"compound": "O=C1CCCCCCCCCCCCCC1", "label.class": "active"}
{"compound": "OC1CCCCCCCCCCCCCC1", "label.class": "active"}
{"compound": "C1CCCCCCCCCCCCCC1", "label.class": "inactive"}
{"compound": "CCCCCCCC(=O)CCCCCCC", "label.class": "inactive"}
{"compound": "O=C1CCCCCCCCCC1", "label.class": "inactive"}

Test call, this compound: CC1C(C)(C)C2=C(C(=O)CCC2)C1(C)C (stereo not drawn) inactive

Test call, this compound: CC1CCCCCCCCCCCC(=O)C1 (stereo not drawn) active

Test call, this compound: CC1CC=CCCCCCCCCC(=O)C1 (stereo not drawn) active

====

Biological target: OR2T34 (Homo sapiens) (UniProt Q8NGX1)
Sequence (whole entry): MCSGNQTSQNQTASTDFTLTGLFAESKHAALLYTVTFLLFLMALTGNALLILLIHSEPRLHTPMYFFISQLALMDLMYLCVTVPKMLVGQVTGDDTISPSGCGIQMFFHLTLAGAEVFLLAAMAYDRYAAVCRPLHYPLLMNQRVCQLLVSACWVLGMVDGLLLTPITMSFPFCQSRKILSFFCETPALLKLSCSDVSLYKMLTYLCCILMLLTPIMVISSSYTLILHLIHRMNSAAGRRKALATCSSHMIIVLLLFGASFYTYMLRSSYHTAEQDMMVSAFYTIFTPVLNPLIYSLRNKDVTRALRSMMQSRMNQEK
Conditions: stereoisomer not certain
Result category, one only: 1.0 = active, 0.0 = inactive

{"compound": "CCC(S)C(C)CO (stereo unspecified)", "label.class": 0.0}

Test call, this compound: CCCCCC(S)C(C)CO (stereo unspecified) 0.0

Test call, this compound: CC(CO)CS (stereo unspecified) 0.0

Test call, this compound: CC1CC(C)(c2ccccc2)CO1 (stereo unspecified) 0.0

====

Target: OR5AP2 (Homo sapiens) (UniProt Q8NGF4)
Sequence (whole entry): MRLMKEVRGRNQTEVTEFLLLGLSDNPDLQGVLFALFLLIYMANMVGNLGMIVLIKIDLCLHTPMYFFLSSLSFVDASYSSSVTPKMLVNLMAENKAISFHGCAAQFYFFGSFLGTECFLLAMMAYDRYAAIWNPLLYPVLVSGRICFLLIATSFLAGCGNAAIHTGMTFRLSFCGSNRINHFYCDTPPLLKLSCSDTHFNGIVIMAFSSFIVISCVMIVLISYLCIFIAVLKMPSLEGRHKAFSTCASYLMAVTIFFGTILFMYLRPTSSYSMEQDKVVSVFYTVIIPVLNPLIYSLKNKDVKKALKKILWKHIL
Conditions: stereoisomer not certain
measure: odorant receptor agonist call

Example cases with answers are listed next.
{"molecule": "CC(=O)c1c(C)c([N+](=O)[O-])c(C(C)(C)C)c([N+](=O)[O-])c1C", "measure": "odorant receptor agonist call", "data.value": "inactive"}
{"molecule": "CC1=NC(C)C(C)S1 (stereo not drawn)", "measure": "odorant receptor agonist call", "data.value": "inactive"}
{"molecule": "CCCC(S)CCOC(C)=O (stereo not drawn)", "measure": "odorant receptor agonist call", "data.value": "inactive"}
{"molecule": "CC1CCCCCCCCCCCCC(=O)C1 (stereo not drawn)", "measure": "odorant receptor agonist call", "data.value": "inactive"}
{"molecule": "CC1=C(O)C(=O)C(C)O1 (stereo not drawn)", "measure": "odorant receptor agonist call", "data.value": "inactive"}
{"molecule": "CCCCC(S)C(C)CO (stereo not drawn)", "measure": "odorant receptor agonist call", "data.value": "inactive"}

Lab entry: OR5AP2 (Homo sapiens) (UniProt Q8NGF4) assay, molecule CCC(S)C(C)CO (stereo not drawn) , odorant receptor agonist call = inactive

Lab entry: OR5AP2 (Homo sapiens) (UniProt Q8NGF4) assay, molecule CCCCCC(S)C(C)CO (stereo not drawn) , odorant receptor agonist call = inactive

====

Test system: OR2W1
Sequence (as listed by the source): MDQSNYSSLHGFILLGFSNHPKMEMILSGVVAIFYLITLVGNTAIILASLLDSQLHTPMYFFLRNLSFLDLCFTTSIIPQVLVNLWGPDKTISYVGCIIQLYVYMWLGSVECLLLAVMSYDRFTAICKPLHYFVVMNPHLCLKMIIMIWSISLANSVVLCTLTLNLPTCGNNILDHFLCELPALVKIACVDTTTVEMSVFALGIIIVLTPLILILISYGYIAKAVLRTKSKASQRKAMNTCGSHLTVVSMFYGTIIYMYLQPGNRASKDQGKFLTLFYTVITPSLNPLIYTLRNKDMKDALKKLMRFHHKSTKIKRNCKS
Conditions: stereoisomer not certain
Result category, one only: T = active, F = inactive

For orientation, consider the following solved cases.
{"compound": "CCCCC(=O)OCC", "label.class": "T"}
{"compound": "CC(=O)OCC=Cc1ccccc1", "label.class": "T"}
{"compound": "C=Cc1ccc(O)cc1", "label.class": "T"}

Test call, this compound: C=C1CCC2(C(C)C)CC12 (stereo not drawn) F

Test call, this compound: c1coc(CSCc2ccco2)c1 T

Test call, this compound: CCCCCCCC(C)=O T

====

Target: UniProt Q8VG27
Sequence (Q8VG27 as listed by the source): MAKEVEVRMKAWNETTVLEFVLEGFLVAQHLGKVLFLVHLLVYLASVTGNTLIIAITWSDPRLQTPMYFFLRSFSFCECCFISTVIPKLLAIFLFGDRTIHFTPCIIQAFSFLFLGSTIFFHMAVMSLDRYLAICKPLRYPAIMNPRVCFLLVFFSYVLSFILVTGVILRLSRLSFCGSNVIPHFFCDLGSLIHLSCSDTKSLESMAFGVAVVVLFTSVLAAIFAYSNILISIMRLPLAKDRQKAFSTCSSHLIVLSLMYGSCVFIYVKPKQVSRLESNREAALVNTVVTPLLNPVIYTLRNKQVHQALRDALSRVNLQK
Conditions: stereoisomer not certain
Result category, one only: active, inactive

Test call, this compound: Cc1ccc(C(C)C)c(O)c1 inactive

Test call, this compound: CCCCCCC(C)O (configuration not stated) inactive

Test call, this compound: O=C(OCc1ccccc1)c1ccccc1O inactive

Test call, this compound: CCSSCC inactive

Test call, this compound: Cc1c(C)c(C)c(C=O)c(C)c1C inactive

Test call, this compound: CCCCC(=O)O inactive

Test call, this compound: CC=C(C)C=O inactive
